biological target: Xanthine oxidase (Mus musculus); construct: The small intestine was homogenized in 4-fold volume of cooled phosphate buffered saline solution (PBS) and then centrifuged; dialysed supernatant of a 105,000 g centrifugation; assay: Xanthine oxidase inhibition (in vitro), mouse small intestine xanthine oxidase solution, HPLC of uric acid; conditions: xanthine substrate, incubated at 37° C. for 5 minutes; HPLC UV 292 nm
readout_kind: pIC50
Entry type: numeric. Quantity: pIC50, the -log10 of concentration in molar units.

Please review the following examples before continuing.
COc1cc(-c2cnn3c(O)ncnc23)ccc1[N+](=O)[O-] ... 7.30
Oc1ncnc2c(-c3ccc(Sc4ccccc4)cc3)cnn12 ... 6.80
Cc1ccc(NS(=O)(=O)c2ccc(-c3cnn4c(O)ncnc34)cc2)cc1 ... 8.44
CC(O)c1ccc(NS(=O)(=O)c2ccc(-c3cnn4c(O)ncnc34)cc2)cc1 (stereo not drawn) ... 7.27
CCSc1ccc(-c2cnn3c(O)ncnc23)cc1C ... 8.00
CSc1ccc(-c2cnn3c(O)ncnc23)cc1C ... 7.15
Cc1ccc(Sc2ccc(-c3cnn4c(O)ncnc34)cc2)cc1 ... 6.51
CSc1ccc(-c2cnn3c(O)ncnc23)cc1Cl ... 8.00

Please look at the following compound next.
Reported pIC50 of "COC(=O)c1ccc(NS(=O)(=O)c2ccc(-c3cnn4c(O)ncnc34)cc2)cc1O" : 8.19

* * *

molecular target: Xanthine oxidase (Mus musculus, UniProt Q00519); construct: The small intestine was homogenized in 4-fold volume of cooled phosphate buffered saline solution (PBS) and then centrifuged; dialysed supernatant of a 105,000 g centrifugation; test: Xanthine oxidase inhibition (in vitro), mouse small intestine xanthine oxidase solution, HPLC of uric acid; settings: xanthine substrate, incubated at 37° C. for 5 minutes; HPLC UV 292 nm
Sequence (Q00519 whole entry): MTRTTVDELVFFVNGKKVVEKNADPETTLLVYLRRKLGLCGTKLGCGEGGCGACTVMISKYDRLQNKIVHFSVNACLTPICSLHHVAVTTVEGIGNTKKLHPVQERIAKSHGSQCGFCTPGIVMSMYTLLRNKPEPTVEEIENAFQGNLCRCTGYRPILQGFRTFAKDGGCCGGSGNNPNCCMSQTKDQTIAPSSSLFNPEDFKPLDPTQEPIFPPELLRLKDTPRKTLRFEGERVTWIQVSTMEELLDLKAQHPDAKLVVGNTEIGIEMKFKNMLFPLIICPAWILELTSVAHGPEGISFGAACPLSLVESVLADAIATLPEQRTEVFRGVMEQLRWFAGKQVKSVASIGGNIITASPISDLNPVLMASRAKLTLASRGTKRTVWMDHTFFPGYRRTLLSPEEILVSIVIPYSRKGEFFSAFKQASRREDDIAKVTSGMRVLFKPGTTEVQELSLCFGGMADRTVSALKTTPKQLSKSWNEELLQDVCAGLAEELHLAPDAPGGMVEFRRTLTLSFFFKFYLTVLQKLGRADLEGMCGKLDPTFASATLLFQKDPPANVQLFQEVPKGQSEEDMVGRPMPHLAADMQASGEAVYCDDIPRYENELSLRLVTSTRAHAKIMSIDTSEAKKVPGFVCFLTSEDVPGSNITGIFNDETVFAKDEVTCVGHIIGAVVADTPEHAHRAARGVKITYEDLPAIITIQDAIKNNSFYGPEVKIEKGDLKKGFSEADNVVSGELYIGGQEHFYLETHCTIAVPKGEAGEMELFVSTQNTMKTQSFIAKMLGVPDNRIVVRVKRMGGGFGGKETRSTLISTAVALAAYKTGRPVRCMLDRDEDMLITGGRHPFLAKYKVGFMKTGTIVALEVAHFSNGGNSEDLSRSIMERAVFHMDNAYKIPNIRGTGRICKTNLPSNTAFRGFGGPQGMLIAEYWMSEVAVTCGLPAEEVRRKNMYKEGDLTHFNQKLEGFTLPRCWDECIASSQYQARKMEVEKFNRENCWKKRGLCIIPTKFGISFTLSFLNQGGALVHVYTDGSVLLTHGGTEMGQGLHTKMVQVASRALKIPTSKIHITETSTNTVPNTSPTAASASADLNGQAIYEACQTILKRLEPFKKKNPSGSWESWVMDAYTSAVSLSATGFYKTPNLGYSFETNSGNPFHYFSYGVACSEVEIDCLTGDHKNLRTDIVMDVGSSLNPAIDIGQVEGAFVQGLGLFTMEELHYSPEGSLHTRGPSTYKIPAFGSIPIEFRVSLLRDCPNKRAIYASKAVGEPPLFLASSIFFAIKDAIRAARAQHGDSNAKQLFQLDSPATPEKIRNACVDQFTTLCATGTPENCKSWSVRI
readout_kind: pIC50
Please report pIC50 as the negative decimal logarithm of the molar concentration, giving only the number.

// returns pIC50 for "CCSc1ccc(-c2cnn3c(O)ncnc23)cc1" with Xanthine oxidase (Mus musculus, UniProt Q00519); value = 7.52

Measured pIC50 (Xanthine oxidase (Mus musculus, UniProt Q00519)), entry COc1cc(-c2cnn3c(O)ncnc23)ccc1[S+]([O-])c1ccccc1 (stereo not drawn) : 7.60

Record "COC(=O)c1ccc(NS(=O)(=O)c2ccc(-c3cnn4c(O)ncnc34)cc2)cc1OC" has Xanthine oxidase (Mus musculus, UniProt Q00519) pIC50 equal to 7.47

Bench note, Xanthine oxidase (Mus musculus, UniProt Q00519): entry "Cc1cc(-c2cnn3c(O)ncnc23)ccc1Br" , its pIC50 = 7.28

The reported pIC50 value, Xanthine oxidase (Mus musculus, UniProt Q00519), for "Cc1cc(-c2cnn3c(O)ncnc23)ccc1S(=O)(=O)N(C)C" reads 7.41

Assay Xanthine oxidase (Mus musculus, UniProt Q00519), sample "CSc1ccc(-c2cnn3c(O)ncnc23)cc1Br" , pIC50 read: 8.57

Tested on Xanthine oxidase (Mus musculus, UniProt Q00519), the item "COC(=O)c1ccc(NS(=O)(=O)c2ccc(-c3cnn4c(O)ncnc34)cc2)cc1" showed pIC50 equal to 8.66

Query "CN(C)S(=O)(=O)c1ccc(-c2cnn3c(O)ncnc23)cc1Cl" on Xanthine oxidase (Mus musculus, UniProt Q00519); pIC50 returned: 7.49

Bench note, Xanthine oxidase (Mus musculus, UniProt Q00519): entry "O=S(=O)(Nc1cccc(O)c1)c1ccc(-c2cnn3c(O)ncnc23)cc1" , its pIC50 = 7.19
